Entry source: paper PMC12114846

- assay: Plasma pharmacokinetics of PhA after i.v. injection
- Assay type: in vivo, BALB/c mice
- measurement_parameters: male, BALB/c, mouse, iv, 2.5 mg/kg of PhA, mice, read-out: t1/2 of PhA (converted)
measurement_type: half-life (h)

molecule="C=Cc1c(C)c2cc3nc(c4c5[nH]c(cc6nc(cc1[nH]2)C(C)=C6CC)c(C)c5C(=O)[C@@H]4C(=O)OC)[C@@H](CCC(=O)O)[C@@H]3C [PhA, pheophorbide A]" units=h experimental_result=1.76

* * *

- experimental_system: UniProt:Q13261
- Sequence (Q13261 with tags, fused parts or gaps limits assumed): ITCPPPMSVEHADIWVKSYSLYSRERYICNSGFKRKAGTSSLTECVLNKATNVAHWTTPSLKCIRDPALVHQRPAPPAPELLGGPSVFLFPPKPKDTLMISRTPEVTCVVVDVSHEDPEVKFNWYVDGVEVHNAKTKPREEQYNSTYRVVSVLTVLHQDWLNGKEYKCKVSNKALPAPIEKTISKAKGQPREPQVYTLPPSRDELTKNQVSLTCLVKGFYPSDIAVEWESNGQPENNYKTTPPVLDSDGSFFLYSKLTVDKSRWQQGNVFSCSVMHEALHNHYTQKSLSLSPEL
measurement_type: Kd (nM)

molecule="C=Cc1c(C)c2cc3nc(c4c5[nH]c(cc6nc(cc1[nH]2)C(C)=C6CC)c(C)c5C(=O)[C@@H]4C(=O)OC)[C@@H](CCC(=O)O)[C@@H]3C [PhA, pheophorbide A]" experimental_result=200
